Ref: the supplement of paper PMC7125110

Reported self-cleavage kobs at 10000 uM GlcN6P values for the following variants.
B1: glmS ribozyme (parent)
chain: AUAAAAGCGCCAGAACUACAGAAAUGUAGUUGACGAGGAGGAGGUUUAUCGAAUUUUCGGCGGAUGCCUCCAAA

variants of: B1; assay: self-cleavage kobs at 10000 uM GlcN6P; higher = faster cleavage; RNA array; conditions: with glucosamine-6-phosphate
Variants at the floor of the assay were thinned out.
Numbers only; they are read as s⁻¹.

Example results:
ordered.residues	self-cleavage kobs at 10000 uM GlcN6P [s⁻¹]
AUAAAAGCGCCAGAACUACAGAAAUGUAGUUGACGAGGAGGUGGUUUAUCGACUUUUCGGCGGAUGCCUCCAAA [A42U A53C]	0.000113
AUAAAAGCGCCAGAAUUACAGAAAUGUAGUUGACGAGGAGGAGGUUUAUCGAAUUUUCGGCGGAUGCCCCCAAA [C16U U69C]	0.0036
AUAAAAGCGCCUGAACUACAGAAAUGUACUUGACGAGGAGGAGGUUUAUCGAAUUUUCGGCGGAUGCCUCCAAA [A12U G29C]	0.0212

Looking for the measured self-cleavage kobs at 10000 uM GlcN6P of AUAAAAGCGCCAGAACUACAGAAAUGUAGUUGACGAGGAGGAGGUUUUUCGAAUACUCGGCGGAUGCCUCCAAA [A48U U55A U56C] , can you help?
4.04e-05

Looking for the measured self-cleavage kobs at 10000 uM GlcN6P of AUAAAAGCGCCUGAACUACAGAAAUGUAAUUGACGAGGGGGAGGUUUAUCGAUUUUUCGGCGGAUGCCUCCAAA [A12U G29A A39G A53U] , can you help?
0.0117

Looking for the measured self-cleavage kobs at 10000 uM GlcN6P of AUAAAAGCGCCAGAACUACAGAAAUGUAGUUGACGAGGAGGAGGUUGAUCGAAUCUUCGGCGGAUGCCUCCAAA [U47G U55C] , can you help?
0.00759

Looking for the measured self-cleavage kobs at 10000 uM GlcN6P of AUAAAAGCGCUAGAGCUACAGAAAUGUAGUUGACGAGGAGGAAGUUUAUCGAAUUUUCGGCGGAUGGCUCCAAA [C11U A15G G43A C67G] , can you help?
0.000119

Looking for the measured self-cleavage kobs at 10000 uM GlcN6P of AUAAAAGCGCCAGAAAUACAGAAAUGUAGUUGACGAGGAGGGGGUUUAUCGAAUUUUCGGCGGAUGCCUCCAAA [C16A A42G] , can you help?
0.00165

Looking for the measured self-cleavage kobs at 10000 uM GlcN6P of AUAAAAGCGCCAGAACUACAGAAAUGUAGUUGACGAGGAGGAGGUUUAUCGACUUUUCGGCGGAUGCCUCGAAA [A53C C71G] , can you help?
0.000335

Looking for the measured self-cleavage kobs at 10000 uM GlcN6P of AUAAAAGCGCCAGAACUACAGAAAUGUAGUUGACGAGGAGGAGGUUCAUCGAAUUUUCGGCGGAUGGCUCCAAA [U47C C67G] , can you help?
0.000279

Looking for the measured self-cleavage kobs at 10000 uM GlcN6P of AUAAAAGCGCCAGAACUACAGAAAUGUAGUUGACGAGGUGGAGGUUUAUCGAAUUUUCGGCGGCUGCCUCCAAA [A39U A64C] , can you help?
0.00021

Looking for the measured self-cleavage kobs at 10000 uM GlcN6P of AUAAAAGCGCCAGAACUACAGAAAUGUAGUUAACGAGGACGAGGUUUAUCGAAUUUUCGGCGGAUGCCUCCAAA [G32A G40C] , can you help?
0.000309

Looking for the measured self-cleavage kobs at 10000 uM GlcN6P of AUAAAAGCGCCAGAACUACAGAAAUGUAGUUGACGAGGAGGAGGUUUAUCGAACUUUCGGCGGAUUCCUCCAAA [U54C G66U] , can you help?
0.00199

Looking for the measured self-cleavage kobs at 10000 uM GlcN6P of UGGAUAGCGCCAGAACUACAGAAAUGUAGUUGACGAGGAGGAGGUUUAUCGAAUUUUCGGCGGAUGCCUCCAAA [A1U U2G A3G A5U] , can you help?
0.0103
